- target-desc: T1, cynomolgus monkey IL-21R expressed on cells (cynomolgus monkey, UniProt G7Q0S8 41-559)
- T1 construct: whole, on cells
- test-summary: cell-based ELISA on CHO cells transiently expressing cynomolgus monkey IL-21R; HRP anti-human IgG, A450
measurement-name: EC50 (read off the curve)

AbL (antibody, IgG1, V domains shown, As for AbA: IgG1/lambda, CDR3 graft, residue limits derived; also called VH3/VL13) VH: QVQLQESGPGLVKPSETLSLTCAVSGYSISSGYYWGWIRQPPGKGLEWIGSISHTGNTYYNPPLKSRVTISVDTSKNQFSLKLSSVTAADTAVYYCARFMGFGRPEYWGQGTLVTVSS VL: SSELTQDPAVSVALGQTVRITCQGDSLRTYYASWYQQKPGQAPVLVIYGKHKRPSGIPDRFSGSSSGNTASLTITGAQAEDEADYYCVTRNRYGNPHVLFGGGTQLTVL = ~900 pM

Here's the next entry for you.
The recorded EC50 (read off the curve) for AbR (antibody, human IgG1, V domains shown, CDR3 graft, residue limits derived as for m29; also called VH3/VL18; VH3DM/VL18) VH: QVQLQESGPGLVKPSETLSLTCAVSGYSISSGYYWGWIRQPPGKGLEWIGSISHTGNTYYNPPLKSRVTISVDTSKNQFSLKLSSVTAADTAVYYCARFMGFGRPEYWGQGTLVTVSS VL: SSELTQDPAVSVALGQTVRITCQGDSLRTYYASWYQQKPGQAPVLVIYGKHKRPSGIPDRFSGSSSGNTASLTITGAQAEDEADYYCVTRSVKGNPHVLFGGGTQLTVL is ~1000 pM
